Record form. Attribute: pKd. Fill in for each entry.
# target.or.test.system: T1, MICA004-ECD-HISAvi (human)
# T1 construct: also called MICA004 polypeptide
# T1 chain: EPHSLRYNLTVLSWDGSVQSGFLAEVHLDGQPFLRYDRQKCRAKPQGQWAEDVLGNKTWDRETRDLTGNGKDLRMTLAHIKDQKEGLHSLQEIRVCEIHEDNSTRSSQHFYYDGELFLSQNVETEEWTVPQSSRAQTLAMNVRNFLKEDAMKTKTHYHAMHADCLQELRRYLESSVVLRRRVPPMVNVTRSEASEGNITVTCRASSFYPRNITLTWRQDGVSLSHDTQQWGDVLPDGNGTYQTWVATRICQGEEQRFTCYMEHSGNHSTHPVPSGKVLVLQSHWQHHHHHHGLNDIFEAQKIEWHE
# assay.details: SPR (Carterra); antibody captured by anti-human Fc, monomeric ECD antigen injected;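 note: dissociation phase followed for about 10 min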
Recall that pKd is obtained by taking minus log10 of the concentration measured in molar.

Recorded pKd of #34 (antibody, human IgG1, V domains shown, also called PL111H04; Hit ID 34) VH: QVQLKQSGPELVKPGASVKVSCKASGYAFTKYNIYWVKQSHGKSLEWIGYIDPYNGGTVQNQKFKGKATLTVDKSSSTAYMHLNSLTSEDSAVYYCATTDGYSLFTYWGQGTLVTVSS VL: DIVLTQSPTTMAASPGEKITITCSASSSISSNYLHWYQQKPGFSPKLLIYRTSNLASGVPARFSGSGSGTSYSLTIGTMEAEDVATYYCQQGSSIPFTFGSGTKLEIK , please.
7.35

Same question, 1D5 (antibody, human IgG1, kappa, V domains shown, also called ID5) VH: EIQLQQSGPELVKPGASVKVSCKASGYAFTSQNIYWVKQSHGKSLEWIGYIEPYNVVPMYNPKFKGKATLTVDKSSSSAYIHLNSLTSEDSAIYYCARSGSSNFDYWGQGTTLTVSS VL: EIILTQSPTTMAASPGEKITITCSASSSISSHYLHWYQQKSGFSPKLLIYRTSNLASGVPARFSGSGSGTSYSLTIGTMEAEDVATYYCQQGSSLPLTFGAGTKVEIKR this time
8.87

What about this binder? #31 (antibody, human IgG1, V domains shown, also called PL116D11; Hit ID 31) VH: EVQLQQSGPELVKPGASVKVSCKASGYAFTKYNIYWVKQSHGKSLEWIGYIDPYNGGTVQNQKFKGKATLTVDKSSSTAYMHLNSLTSEDSAVYYCATTDGYSLFTYWGQGTLVTVSS VL: DIQMTQTTSSLSASLGDRVTISCRASQDIGNYLNWYQQKPDGTVKLLIYYTSRLHSGVPSRFSGSGSGTDYSLTISNLEQEDIATYFCQQGNTLPFTFGSGTKLEIK
7.60

The reported measurements were obtained from patent US20250368742A1.
